Listed molecules paired with reported K
Species on record: Rattus norvegicus
Assay: Open TG-GATES - Regimen: Single
Format: toxicity, organism-based, Sprague-Dawley
Set-up: regimen Single, gender Male, age 6 weeks
Details: in vivo, po, 0 mg/kg, 6 h, tissue Plasma, route gavage, dose level Control

molecule | K
CCOc1ccc(NC(=O)CC(C)O)cc1 (stereo not drawn) | 4.3 meq/L
COC1=CC(=O)C[C@@H](C)[C@]12Oc1c(Cl)c(OC)cc(OC)c1C2=O | 3.9 meq/L
O=C(CCCN1CCC(O)(c2ccc(Cl)cc2)CC1)c1ccc(F)cc1 | 5.1 meq/L
CCOC(=O)CCC(=O)O[C@H]1[C@H](O[C@@H]2[C@@H](C)[C@H](O[C@H]3C[C@@](C)(OC)[C@@H](O)[C@H](C)O3)[C@@H](C)C(=O)O[C@H](CC)[C@@](C)(O)[C@H](O)[C@@H](C)C(=O)[C@H](C)C[C@@]2(C)O)O[C@H](C)C[C@@H]1N(C)C [ERYTHROMYCIN ETHYLSUCCINATE] | 4.1 meq/L
NNC(=O)c1ccncc1 | 4.1 meq/L
CN(C)CCN(Cc1cccs1)c1ccccn1 | 4.1 meq/L
C[C@@H]1C[C@H]2[C@@H]3CCC4=CC(=O)C=C[C@]4(C)[C@@]3(F)[C@@H](O)C[C@]2(C)[C@@]1(O)C(=O)CO | 4.3 meq/L
CN1C(=O)CN=C(c2ccccc2)c2cc(Cl)ccc21 | 4.9 meq/L

###

Organism: Rattus norvegicus
Assay: Open TG-GATES - Regimen: Daily Repeat
Type: toxicity, organism-based, Sprague-Dawley
Design: regimen Daily Repeat, gender Male, age 6 weeks
Details: in vivo, po, 300 mg/kg, […], tissue Blood, route gavage, dose level Middle, time 14 day
reported_endpoint: Lym (%)

compound | unit_name | result
COC1=CC(=O)C[C@@H](C)[C@]12Oc1c(Cl)c(OC)cc(OC)c1C2=O | % | 82
CCOc1ccc(NC(=O)CC(C)O)cc1 (stereo not given) | % | 75.2
NC(N)=Nc1nc(CSCCC(N)=NS(N)(=O)=O)cs1 | % | 79
COc1ccc2[nH]c([S+]([O-])Cc3ncc(C)c(OC)c3C)nc2c1 (stereo not given) | % | 83.8
CCOC(=O)CCC(=O)O[C@H]1[C@H](O[C@@H]2[C@@H](C)[C@H](O[C@H]3C[C@@](C)(OC)[C@@H](O)[C@H](C)O3)[C@@H](C)C(=O)O[C@H](CC)[C@@](C)(O)[C@H](O)[C@@H](C)C(=O)[C@H](C)C[C@@]2(C)O)O[C@H](C)C[C@@H]1N(C)C [ERYTHROMYCIN ETHYLSUCCINATE] | % | 87.4

###

Listed compounds paired with reported APTT
Organism: Rattus norvegicus
Assay: Open TG-GATES - Regimen: Daily Repeat
Type: toxicity, organism-based, Sprague-Dawley
Design: regimen Daily Repeat, gender Male, age 6 weeks
Conditions: in vivo, po, 0 mg/kg, […], tissue Blood, route gavage, dose level Control, time 7 day

compound | APTT
CN(C)CCN(Cc1cccs1)c1ccccn1 | 21.1 s
CN(C)CCCN1c2ccccc2CCc2ccccc21 [IMIPRAMINE] | 15.4 s
COc1ccc2[nH]c([S+]([O-])Cc3ncc(C)c(OC)c3C)nc2c1 (centres undefined) [OMEPRAZOLE] | 20.8 s
CN1C(=O)CN=C(c2ccccc2)c2cc(Cl)ccc21 [DIAZEPAM] | 16 s

###

Species on record: Rattus norvegicus
Test: Open TG-GATES - Regimen: Single
Assay type: toxicity, organism-based, Sprague-Dawley
Parameters: regimen Single, gender Male, age 6 weeks
Conditions: in vivo, po, 30 mg/kg, 3 h, tissue Plasma, route gavage, dose level Middle
reported_endpoint: DBIL

molecule | reported_endpoint | result
CN(C)CCCN1c2ccccc2CCc2ccc(Cl)cc21 [CLOMIPRAMINE] | DBIL | 0.016 mg/dL
CC1=C(/C=C/C(C)=C/C=C/C(C)=C/CO)C(C)(C)CCC1 [RETINOL] | DBIL | 0 mg/dL
CN(C)CCN(Cc1cccs1)c1ccccn1 | DBIL | 0 mg/dL
CN(C)CCCN1c2ccccc2CCc2ccccc21 [IMIPRAMINE] | DBIL | 0.008 mg/dL

###

Species on record: Rattus norvegicus
Assay: Open TG-GATES - Regimen: Daily Repeat
Type: toxicity, organism-based, Sprague-Dawley
Set-up: regimen Daily Repeat, gender Male, age 6 weeks
Settings: in vivo, po, 0 mg/kg, […], tissue Plasma, route gavage, dose level Control, time 14 day

molecule | A/G
CCCNC(=O)NS(=O)(=O)c1ccc(Cl)cc1 [CHLORPROPAMIDE] | 0.8
NC(N)=Nc1nc(CSCCC(N)=NS(N)(=O)=O)cs1 [FAMOTIDINE] | 1.5
CN(C)CCN(Cc1cccs1)c1ccccn1 | 1.1
CCOc1ccc(NC(=O)CC(C)O)cc1 (stereo not drawn) [BUCETIN] | 0.8
CC1=C(/C=C/C(C)=C/C=C/C(C)=C/CO)C(C)(C)CCC1 [RETINOL] | 1.3
CCOC(=O)CCC(=O)O[C@H]1[C@H](O[C@@H]2[C@@H](C)[C@H](O[C@H]3C[C@@](C)(OC)[C@@H](O)[C@H](C)O3)[C@@H](C)C(=O)O[C@H](CC)[C@@](C)(O)[C@H](O)[C@@H](C)C(=O)[C@H](C)C[C@@]2(C)O)O[C@H](C)C[C@@H]1N(C)C [ERYTHROMYCIN ETHYLSUCCINATE] | 1.1
COC1=CC(=O)C[C@@H](C)[C@]12Oc1c(Cl)c(OC)cc(OC)c1C2=O [GRISEOFULVIN] | 1.5
NNC(=O)c1ccncc1 [ISONIAZID] | 1.6

###

Organism: Rattus norvegicus
Experiment: Open TG-GATES - Regimen: Single
Format: toxicity, organism-based, Sprague-Dawley
Design: regimen Single, gender Male, age 6 weeks
Settings: in vivo, po, 100 mg/kg, 9 h, tissue Blood, route gavage, dose level Low
Listed compounds paired with reported MCHC
reported_endpoint: MCHC (%)

compound | reported_endpoint | unit_name | result
COc1ccc2[nH]c([S+]([O-])Cc3ncc(C)c(OC)c3C)nc2c1 (centres undefined) | MCHC | % | 34.5
COC1=CC(=O)C[C@@H](C)[C@]12Oc1c(Cl)c(OC)cc(OC)c1C2=O | MCHC | % | 34.1
NC(N)=Nc1nc(CSCCC(N)=NS(N)(=O)=O)cs1 | MCHC | % | 36
CCOC(=O)CCC(=O)O[C@H]1[C@H](O[C@@H]2[C@@H](C)[C@H](O[C@H]3C[C@@](C)(OC)[C@@H](O)[C@H](C)O3)[C@@H](C)C(=O)O[C@H](CC)[C@@](C)(O)[C@H](O)[C@@H](C)C(=O)[C@H](C)C[C@@]2(C)O)O[C@H](C)C[C@@H]1N(C)C [ERYTHROMYCIN ETHYLSUCCINATE] | MCHC | % | 33

###

Species on record: Rattus norvegicus
Assay: Open TG-GATES - Regimen: Single
Format: toxicity, organism-based, Sprague-Dawley
Parameters: regimen Single, gender Male, age 6 weeks
Conditions: in vivo, po, 0 mg/kg, 24 h, tissue Plasma, route gavage, dose level Control
Label YES when TG is at or above 90 mg/dL; otherwise label NO.

compound | class_assignment
CC/C(=C(\c1ccccc1)c1ccc(OCCN(C)C)cc1)c1ccccc1 | NO
COc1ccc2[nH]c([S+]([O-])Cc3ncc(C)c(OC)c3C)nc2c1 (stereo unspecified) | YES
COc1cc2c(c(OC)c1OC)-c1ccc(OC)c(=O)cc1[C@@H](NC(C)=O)CC2 | YES
CCOc1ccc(NC(=O)CC(C)O)cc1 (stereo unspecified) | YES
Cc1ccc(C)c(OCCCC(C)(C)C(=O)O)c1 | NO

###

Species: Rattus norvegicus
Assay: Open TG-GATES - Regimen: Single
Assay type: toxicity, organism-based, Sprague-Dawley
Set-up: regimen Single, gender Male, age 6 weeks
Conditions: in vivo, po, 0 mg/kg, 6 h, tissue Plasma, route gavage, dose level Control
reported_endpoint: K (meq/L)

molecule | unit_name | result
CN(C)CCCN1c2ccccc2CCc2ccc(Cl)cc21 | meq/L | 4.2
CC(C)OC(=O)C(C)(C)Oc1ccc(C(=O)c2ccc(Cl)cc2)cc1 [FENOFIBRATE] | meq/L | 4.1
COc1ccc2[nH]c([S+]([O-])Cc3ncc(C)c(OC)c3C)nc2c1 (stereo not drawn) | meq/L | 3.8
Cc1ccc(C)c(OCCCC(C)(C)C(=O)O)c1 | meq/L | 4.3
CN(C)CCCN1c2ccccc2CCc2ccccc21 | meq/L | 4
COc1cc2c(c(OC)c1OC)-c1ccc(OC)c(=O)cc1[C@@H](NC(C)=O)CC2 | meq/L | 4.6
CC1=C(/C=C/C(C)=C/C=C/C(C)=C/CO)C(C)(C)CCC1 | meq/L | 4.5
CCCNC(=O)NS(=O)(=O)c1ccc(Cl)cc1 [CHLORPROPAMIDE] | meq/L | 4.2
